Test: inhibitors of induced NF-kB luciferase reporter, primary screen, TCR NF-kB activation inhibitor project, cell-based, luminescence, uHTS (AID 435003)
Conditions: Jurkat, PMA/ionomycin-induced NF-kB luciferase reporter, at 4 µM, hits give high values
Screen size: about 330,000 compounds; about 1,700 (0.52%) were called active. The list comes from a sample in which actives are over-represented; it also holds close analogues and randomly drawn compounds.
Catalogue of compounds with associated inhibition
Reported metric: inhibition (%)

Cc1ccc(S(=O)(=O)NC2CCCCCC2)cc1 | -18.9
CCOc1ccc2[nH]c3nc(SCC(=O)NC4CCCC4)nnc3c2c1 | 59
COc1ccc(CC(=O)Nc2nc(-c3ccc(F)c(F)c3)cs2)cc1OC | 55.3
Cc1c(C)c(C)c(S(=O)(=O)N2CCC3(CC2)OCCO3)c(C)c1C | -2.3
CCN(CC)c1ccc(/C=N/NC(=O)c2cnccn2)c(O)c1 | 59.3
COc1cc2c(cc1OC)CN(C(=O)c1cc(=O)c3ccccc3o1)CC2 | 50.7
CCN1CCN(c2ccc(NC(=O)c3cnccn3)cc2)CC1 | -79.3
COc1ccc2c(CC(=O)N3CCc4cc(OC)c(OC)cc4C3)coc2c1 | 15.9
O=C(CSc1nnc2c(n1)[nH]c1ccccc12)NC1CCCCC1 | 21.2
COc1ccccc1CNC(=O)c1cc(=O)c2ccccc2o1 | -3.35
COc1ccc(C)cc1NC(=O)C(OC(=O)c1cccc(S(=O)(=O)N(C)c2ccccc2)c1)c1ccccc1 (stereo unspecified) | 10.1

* * *

Experiment: inhibitors of induced NF-kB luciferase reporter, primary screen, TCR NF-kB activation inhibitor project, cell-based, luminescence, uHTS (AID 435003)
Conditions: Jurkat, PMA/ionomycin-induced NF-kB luciferase reporter, at 4 µM, hits give high values
Out of some 330,000 compounds screened, about 1,700 (0.52%) were called active. What follows is part of a selection rich in actives, with near analogues and random picks from the rest.
Catalogue of compounds with associated inhibition
Reported metric: inhibition (%)

c1ccc(-n2cccc2)c(N2CCCCC2)c1 | 6.35
COc1ccc(-c2cc(C(F)(F)F)n3nc(C(=O)N4CCOCC4)c(Cl)c3n2)cc1 | -15.4
CCc1ccc(NC(=O)Cn2nnc(C(=O)NCc3ccc(OC)cc3)c2N)cc1 | 13.8
COC(=O)C1=C(C(=O)OC)[C@@H]2N(C)c3ccccc3[C@@]23C[C@@H](C(=O)OC)N(C(=O)c2ccco2)C3=N1 | 18.3
COc1ccc(S(=O)(=O)N(C)C[C@H]2Oc3ccc(NS(=O)(=O)c4cccs4)cc3CC(=O)N([C@H](C)CO)C[C@H]2C)cc1 | 16
CC1Cc2cc(/C(O)=C3\C(=O)C(=O)N(Cc4cccnc4)C3c3ccccc3F)ccc2O1 (stereo not given) | -14.7
Cc1noc(C)c1C(=O)N(CC(=O)NC1CCCC1)Cc1ccccc1F | -8.54
CSc1n[nH]c(=S)n1N | 8.75
Cc1ccc(-n2c(SCC(=O)NCc3ccc4c(c3)OCO4)nnc2-c2cccnc2)c(C)c1 | -1.23
Cc1ccc(NC(=O)Cn2nnc(C(=O)NCc3ccco3)c2N)c(C)c1 | -3.15

* * *

Assay: inhibitors of induced NF-kB luciferase reporter, primary screen, TCR NF-kB activation inhibitor project, cell-based, luminescence, uHTS (AID 435003)
Conditions: Jurkat, PMA/ionomycin-induced NF-kB luciferase reporter, at 4 µM, hits give high values
The whole screen tested about 330,000 compounds, of which about 1,700 (0.52%) were called active. The list comes from a sample in which actives are over-represented; it also holds close analogues and randomly drawn compounds.
Reported metric: inhibition (%)

O=C(c1c(F)cccc1Cl)N1CCN(S(=O)(=O)c2ccc3c(c2)OCCCO3)CC1 | -0.00048
O=S(=O)(c1ccc(Sc2nnc3ccccn23)nc1)N1CCOCC1 | -12
COc1cc(NS(=O)(=O)c2ccc(NC(=O)c3ccc([N+](=O)[O-])cc3)cc2)ncn1 | 14.9
CSc1nc(-c2ccccc2)nc(C(Cl)Cl)n1 | 11
COc1ccc(C)c(Cn2c(-c3nonc3N)nc3ccccc32)c1 | 65.7
CCN1/C(=C\c2ccc3ccccc3[n+]2CC)Sc2cc(C)ccc21 | 90.1
C#CCSc1nnc(-c2sc3ccccc3c2Cl)o1 | -65.2
CCOc1ccccc1-c1nc(CN2CCC(C(=O)N3CCOCC3)CC2)c(C)o1 | 1.89
CC(C)Oc1ccc(C(=O)NC(C)(C)CO)cc1 | -5.78
CC(C)c1ccc(S(=O)(=O)N2CCN(C(=O)c3ccc(N4CCCC4)c([N+](=O)[O-])c3)CC2)cc1 | 7.91
COc1ccccc1NC(=O)C1CCCN1S(=O)(=O)c1ccc(Cl)cc1 (stereo unspecified) | -8.88
Cc1cc(Cl)ccc1NC(=S)N1CCC(C(N)=O)(N2CCCCC2)CC1 | 5.02
Nc1nonc1-c1nc2ccccc2n1Cc1ccc(F)cc1 | 1.66
CCNC(=S)N(CCc1c(C)[nH]c2ccc(C)cc12)Cc1ccco1 | -0.351
C/C(CC(O)(/C=N/O)c1ccccc1)=N\O (stereo unspecified) | -6.87
COC(=O)Cc1[nH]n(-c2nc3ccccc3s2)c(=O)c1C(C)=Nc1ccc(OC)cc1 | 60.8
O=C(NCC#CCSc1nnc(-c2cccc3ccccc23)o1)c1cccs1 | 51.4
COc1ccc(N(CC(=O)Nc2cc(OC)cc(OC)c2)S(=O)(=O)c2c(C)n[nH]c2C)cc1 | -11.8
CCCNC(=O)OC[C@H]1O[C@H](CCO/N=C/[C@@H](NS(=O)(=O)c2ccc(C)cc2)[C@H](C)/C=C/CC(=O)OC)C=C[C@@H]1Oc1ccc(OC)cc1 | 8.93
O=C(c1ccc(Cl)s1)N(Cc1nnc(-c2ccccc2Cl)o1)C1CC1 | -18.3
CC(=NCc1ccco1)c1c(C(F)(F)F)[nH]n(-c2nc3ccccc3s2)c1=O | -104

* * *

Test: inhibitors of induced NF-kB luciferase reporter, primary screen, TCR NF-kB activation inhibitor project, cell-based, luminescence, uHTS (AID 435003)
Conditions: Jurkat, PMA/ionomycin-induced NF-kB luciferase reporter, at 4 µM, hits give high values
About 1,700 (0.52%) of roughly 330,000 compounds were called active. What follows is part of a selection rich in actives, with near analogues and random picks from the rest.
Reported metric: inhibition (%)

COc1ccc(CNS(=O)(=O)c2ccc(-c3cnc(C4CC4)o3)cc2)cc1 | 18.4
Cc1ccc(C)c(NS(=O)(=O)c2cc(Br)cnc2N)c1 | -1.35
CCC(C)n1[nH]c(=O)cc1N (stereo unspecified) | 6.5
O=C(CSc1ncnc2scc(-c3ccccc3)c12)NCc1ccc2c(c1)OCO2 | 1.29
Cc1cccc(CNS(=O)(=O)c2ccc(-c3cnc(C4CC4)o3)cc2)c1 | 5.99
O=C(COC(=O)c1ccc(F)c(S(=O)(=O)N2CCOCC2)c1)NCc1ccc2c(c1)OCO2 | -6.67

* * *

Test: inhibitors of induced NF-kB luciferase reporter, primary screen, TCR NF-kB activation inhibitor project, cell-based, luminescence, uHTS (AID 435003)
Conditions: Jurkat, PMA/ionomycin-induced NF-kB luciferase reporter, at 4 µM
The campaign covered roughly 330,000 compounds. About 1,700 (0.52%) were called active. Rule as the data show it: active = inhibition above about 50%; inactive = the rest. The full list was thinned out, with actives kept by preference.
Outcome codes: label 1 (active), label 0 (inactive)

CN(NC(=O)c1ccccc1F)c1nc(C(F)(F)F)nc2ccccc12 | label 0
COc1ccc(C2=Nn3c(nnc3-c3ccccc3OC)SC2)cc1OC1CCCC1 | label 1
O=C(N/N=C/c1cccc(O)c1)c1cc2c(ccc3ccccc32)o1 | label 0
Cc1cc(=O)oc2cc(OCC3CC(c4ccccc4Cl)=NO3)ccc12 (stereo unspecified) | label 1
Cc1cc(C(=O)NC2CCCc3c2cnn3-c2cccc(C)c2C)c(C)o1 (stereo unspecified) | label 0
CC1(C)OC(=O)N2CCc3ccccc3C21C (stereo unspecified) | label 0
Cc1cccc(OCC(=O)NC2CC(C)(C)NC(C)(C)C2)c1 | label 0
O=C(Nc1cccc(S(=O)(=O)N2CCCC2)c1)c1cncc(Br)c1 | label 0
N#Cc1ccccc1S(=O)(=O)N1CCN(C(=O)c2cc(-c3ccccc3)nn2-c2ccccc2)CC1 | label 0
COc1ccc(C(=O)NCC(=O)N/N=C/c2ccc([N+](=O)[O-])o2)cc1OC | label 0
CC(C)(C)c1ccc(Oc2ccc(N)cc2)cc1 | label 1
CCC/C=C(\CCC)C(NC(=O)Cc1ccccc1)c1ccc(C(=O)OC)cc1 (stereo unspecified) | label 0
O=C(O)/C=C/C(=O)NNc1ccc([N+](=O)[O-])cc1 | label 0
COC(=O)c1ccc(C2CC(=O)Nc3cc(OC)c(OC)cc32)cc1 (stereo unspecified) | label 0
CC1(C(=O)O)CCC(C(=O)Nc2ccc(Cl)c(Cl)c2)C1(C)C (stereo unspecified) | label 0
O=C(NC(=O)c1ccc(Cl)c(Cl)c1)OC1CCS(=O)(=O)C1 (stereo unspecified) | label 0
Cc1ccc(-n2ncc3c2CCCC3NC(=O)c2cnccn2)cc1C (stereo unspecified) | label 0
CCN(CC)CCCNC(=O)c1cc2c(=O)[nH]c3ccc(C)cc3c2s1 | label 0
COc1ccc(S(=O)(=O)Nc2ccc3c(c2)OCO3)cc1Cl | label 0
CC(=O)c1cc(-c2ccccc2)[nH]c1N1CCCC1 | label 0
COc1ccc(C(=O)NC2CCCc3c2cnn3-c2cccc(C)c2C)c(OC)n1 (stereo unspecified) | label 0
COc1cccc(Oc2ccc(N)cc2)c1 | label 0
COc1ccc(/C=N/NC(=O)C(C)N(c2ccc(OC)cc2)S(C)(=O)=O)cc1 (stereo unspecified) | label 0
Cc1ccc2nsnc2c1NC(=O)c1ccccc1[N+](=O)[O-] | label 0
CC(C)(C)c1ccc(OC2=CS(=O)(=O)c3ccccc32)cc1 | label 0
CC(=O)N1CSCC1C(=O)O (stereo unspecified) | label 0
Cc1ccc(C(=O)N2CCN(C3CCCCC3)CC2)s1 | label 0
C=CCOc1cccc(C2NC(=O)c3ccccc3O2)c1 (stereo unspecified) | label 0
Cc1c(/C=N\NC(=O)c2cc3ccccc3o2)c2ccccc2n1C | label 1
CCC(C)NC(=O)C1c2ccccc2C(=O)N1Cc1ccccc1 (stereo unspecified) | label 0
O=C(/C=C/c1ccc([N+](=O)[O-])o1)NNC(=O)c1ccc(F)cc1 | label 1
CCCOc1ccccc1C1CC(=O)Nc2cc3c(cc21)OCO3 (stereo unspecified) | label 1
Cc1ccc2[nH]c(=O)c(CC(=O)O)c(-c3ccccc3)c2c1 | label 0
Cc1cc(=O)oc2cc(OCCC[n+]3ccccc3)ccc12 | label 0
Cc1ccc(-n2c(=O)cc(N3CCN(Cc4ccccc4)CC3)[nH]c2=O)cc1 | label 0
CSc1nc(N(C)NC(=O)c2cccc(C)c2)c2ccccc2n1 | label 1
Cn1nccc1C(=O)NC1CCCc2c1cnn2-c1ccccc1F (stereo unspecified) | label 1
O=C(CSc1ncnc2c1oc1ccccc12)NC1CCCC1 | label 0
CCOc1ccccc1N1CCN(C(=O)COc2ccc3c(C)cc(=O)oc3c2)CC1 | label 0
COCc1cc(C)nc(Nc2cc(C)ccc2C)c1C#N | label 0
CCCOc1ccc(C2NC(=O)NC(c3ccccc3)=C2C(C)=O)cc1OCC (stereo unspecified) | label 0
NC1=NC2(CCCCC2)N(c2ccc(F)cc2F)C(N)=N1 | label 0
Cc1cccc(N(C)C(=O)c2cc3c(=O)[nH]c4ccc(C)cc4c3s2)c1 | label 1
Cc1cccc(Nc2nc(NCCO)nc(N3CCCC3)n2)c1 | label 0
Cc1ccc(O)c(NC(=S)NC(=O)COc2ccc(Br)cc2)c1 | label 0
CN(Cc1ccccc1)C(=O)CCNC(=O)Cn1cnc2ccccc2c1=O | label 0
